- TARGET OF ASSAY: T1, human Tim-3 expressed on the cell surface (human, UniProt Q8TDQ0 22-301)
- T1 construct: also called hTim-3; Human Tim-3 (CHO)
- ASSAY NOTES: flow cytometry, activated human CD4+ T cells
# maps each entry to its Kd
Answer in nM, number only, no unit symbol.

h22E11-VK2-28 × h22E11-VH1-69 (antibody, V domains shown, Humanized m22E11) VH: QVQLVQSGAEVKKPGSSVKVSCKVSGFSLTSYGVHWVRQAPGQGLEWLVVIWSDGSTTYNQKFQGRVTITKDESTSTVYMELSSLRSEDTAVYYCARQGGYRYDDAMDYWGQGTLVTVSS VL: DIVLTQSPLSLPVTPGEPASISCKASQSVDYDGNSYVNWYLQKPGQSPQLLIYAASNLESGVPDRFSGSGSGTDFTLKISRVEAEDVGVYYCQQSNEDPYTFGQGTKVEIK : 2.3
h22E11-VK3-11 × h22E11-5-IgG-HC (antibody, V domains shown, Humanized m22E11) VH: EVQLVESGGGLVQPGGSLRLSCAVSGFSLTSYGVHWVRQAPGKGLEWLVVIWSDGSTTYNSALKSRFTISKDNAKNSVYLQMNSLRAEDTAVYYCARQGGYRYDDAMDYWGQGTLVTVSS VL: EIVLTQSPATLSLSPGERATLSCKASQSVDYDGNSYVNWYQQKPGQAPRLLIYAASNLESGIPARFSGSGSGTDFTLTISSLEPEDFAVYYCQQSNEDPYTFGQGTKVEIK : 1.1
h22E11-VK1-39 × h22E11-5-IgG-HC (antibody, V domains shown, Humanized m22E11) VH: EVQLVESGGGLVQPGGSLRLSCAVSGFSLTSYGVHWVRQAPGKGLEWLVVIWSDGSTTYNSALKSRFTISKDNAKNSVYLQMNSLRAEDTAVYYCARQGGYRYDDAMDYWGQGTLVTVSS VL: DIQLTQSPSSLSASVGDRVTITCKASQSVDYDGNSYVNWYQQKPGKAPKLLIYAASNLESGVPSRFSGSGSGTDFTLTISSLQPEDFATYYCQQSNEDPYTFGQGTKVEIK : 2.4
h22E11-5-IgG-LC × h22E11-VH1-69 (antibody, V domains shown, Humanized m22E11) VH: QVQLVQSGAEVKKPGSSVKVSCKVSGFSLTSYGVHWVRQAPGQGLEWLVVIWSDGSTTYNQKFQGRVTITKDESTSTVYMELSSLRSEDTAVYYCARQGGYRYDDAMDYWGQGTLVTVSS VL: EIVLTQSPGTLSLSPGERATLSCKASQSVDYDGNSYVAWYQQKPGQAPRLLIYAASNLESGIPDRFSGSGSGTDFTLTISRLEPEDFAVYYCQQSNEDPYTFGQGTKVEIK : 1.6

Now examine the next entry.
Request: Which Kd is listed for h22E11-VK2-28 × h22E11-VH5-51 (antibody, V domains shown, Humanized m22E11) VH: EVQLVQSGAEVKKPGESLKISCKVSGFSLTSYGVHWVRQMPGKGLEWLVVIWSDGSTTYNPSFQGQVTISKDKSISTVYLQWSSLKASDTAMYYCARQGGYRYDDAMDYWGQGTLVTVSS VL: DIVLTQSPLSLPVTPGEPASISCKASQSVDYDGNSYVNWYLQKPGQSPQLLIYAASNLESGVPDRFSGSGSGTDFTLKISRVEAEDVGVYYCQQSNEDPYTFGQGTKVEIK ?
Response: 0.7
